Origin of values: PubChem BioAssay AID463229

test system: INS-1E rat beta cells, no cytokines, CellTiter-Glo ATP, 48 h; assay: cytokine-free beta-cell viability effect – INS-1E rat cells, ATP luminescence, cherry pick, counter-screen for beta-cell apoptosis protection project, dose response (AID 463229);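 active = compounds raising the signal whose fitted half-maximal concentration is at or below their top tested dose (cut at about 25 µM in these data); inconclusive = flat fit at 30 to 70% activity, or a poor fit; inactive = the rest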
Select the matching outcome among 1 (active), 0 (inactive)

Past entries and their recorded results:
CCCCCCC[N+](CC)(CC)CCCCc1ccc(Cl)cc1 :: 1
COCc1ccc(O)c2ncccc12 :: 1
CC(=O)Nc1ccc(NC(=O)CN(c2cccc([N+](=O)[O-])c2)S(C)(=O)=O)cc1 :: 1
CCN1/C(=C/C=C/c2sc3ccccc3[n+]2CC)Sc2ccccc21 :: 1
CC(C)(C)c1ccc(C(O)CCCN2CCC(C(O)(c3ccccc3)c3ccccc3)CC2)cc1 (stereo not drawn) :: 1
Cc1ccc([N+](=O)[O-])cc1N(CC(=O)Nc1ccc(S(=O)(=O)Nc2cccc(C(F)(F)F)c2)cc1)S(C)(=O)=O :: 1
COc1ccc(C(=O)NCC(=O)N/N=C/c2ccc([N+](=O)[O-])s2)cc1OC :: 1
CCn1c(=O)c(C(=O)Nc2nc3ccccc3[nH]2)c(O)c2ccccc21 :: 1
CN(C)c1ccc(/C=C/c2ccc3ccccc3n2)cc1 :: 1
CC(=O)c1c(C)oc2c1C(=O)c1ccccc1C2=O :: 1

Ask | Record request — test call for COc1cnc(-c2ccccn2)nc1Oc1ccc(C(C)(C)C)cc1
Reply | 1

Ask | Record request — test call for Oc1c(C(Nc2cccc(C(F)(F)F)c2)c2ccncc2)ccc2cccnc12 (stereo not drawn)
Reply | 1

Ask | Record request — test call for Cc1sc2ncnc(NCc3cccs3)c2c1C
Reply | 1

Ask | Record request — test call for Cc1cc(C(C)(C)CC(C)(C)C)ccc1OCCOCC[N+](C)(C)Cc1ccccc1
Reply | 1

Ask | Record request — test call for CCCCCCCCCCOC(=O)Cn1c(COc2cccc(OC)c2)[n+](C)c2ccccc21
Reply | 1

---

test system: INS-1E rat beta cells, no cytokines, CellTiter-Glo ATP, 48 h; assay: cytokine-free beta-cell viability effect – INS-1E rat cells, ATP luminescence, cherry pick, counter-screen for beta-cell apoptosis protection project, dose response (AID 463229)
Collected AC50 values appear next to each entry.

CCc1ccc(-c2cc(C(F)(F)F)n3nc(C(=O)Nc4cnn(Cc5ccc(C)cc5)c4)cc3n2)s1 :: 7.83 µM
O=C1C=C(N2CCOCC2)c2ccccc2C1=O :: 6.13 µM
Cc1ccc2nc(NC(=O)c3ccccn3)sc2c1 :: 9.36 µM
CC(=O)NC(c1cccs1)c1cc([N+](=O)[O-])c2cccnc2c1O (stereo not given) :: 10.9 µM
CCCCOc1ccc(C(=O)NNC(=S)NC(=O)CC)cc1 :: 14.3 µM

Ask | What measured AC50 goes with Cc1cccc2sc(NNC(=O)c3ccc(S(=O)(=O)N4CCc5ccccc5C4)cc3)nc12 ?
Reply | 3.93 µM

Ask | What measured AC50 goes with CCc1ccc(S(=O)(=O)/N=C2\C=C(Nc3ccc(C(=O)O)cc3)C(=O)c3ccccc32)cc1 ?
Reply | 14.7 µM

Ask | What measured AC50 goes with CCC1(c2ccc(F)cc2)NC(=O)N(CC(=O)Nc2ccc(-c3nc4ccc(C)cc4s3)cc2)C1=O (stereo not given) ?
Reply | 12.4 µM

Ask | What measured AC50 goes with O=C(N/N=C/c1ccc([N+](=O)[O-])o1)c1ccc(O)cc1 ?
Reply | 7.45 µM

Ask | What measured AC50 goes with Cc1ccc(Cl)cc1N1CCN(C(=O)CSc2nnc3n2C(C)(C)Cc2ccccc2-3)CC1 ?
Reply | 7.07 µM
